Assay: Fermentation of sugar solution with model inhibitor coniferyl aldehyde
Settings: Saccharomyces cerevisiae
measured_quantity: viability at 2.25 h, 2.5 mM (%)

- compound: "COc1cc(/C=C/C=O)ccc1O [coniferyl aldehyde, reference compound]"
  measured_quantity: "viability at 2.25 h, 2.5 mM"
  numeric_readout: 1.7

###

Experiment: Fermentation of sugar solution treated with sodium dithionite
Type: cell-based
Settings: Saccharomyces cerevisiae, Saccharomyces cerevisiae yeast cells in fermentation, pH 5.5, fermentation time 2.25 h, read-out: Viable cells
measured_quantity: viability at 2.25 h, 10 mM

- molecule: "O=S([O-])S(=O)[O-].[Na+].[Na+] [Dithionite, Sodium dithionite]"
  result: "80.8%"

###

Assay: Fermentation of sugar solution treated with sodium dithionite
Format: cell-based
Details: Saccharomyces cerevisiae, Saccharomyces cerevisiae yeast cells in fermentation, pH 5.5, fermentation time 7 h, read-out: Viable cells
measured_quantity: viability at 7 h, 10 mM (%)

- compound: "O=S([O-])S(=O)[O-].[Na+].[Na+] [Dithionite, Sodium dithionite]"
  numeric_readout: 84.3
